# credit: patent US9572785B2

Assay: Solubility profiling at various pHs
Format: physicochemical
Conditions: 0.15 M NaCl (aq), pH-adjusted, 25 °C, saline or isotonic, thermodynamic from solid, Media pH 7, original pH 7.03, final pH 6.47
MEASURED_ATTRIBUTE: solubility at 24 h (µg/mL)
The figure you give is taken to be in µg/mL; do not add the unit.

Recall and state the measured solubility at 24 h for `CCN(Cc1cc(C(F)(F)F)ccc1-c1cc(CC(=O)O)ccc1OC)C(=O)NCc1ccccc1` .
590

###

Assay: Solubility profiling at various pHs
Assay type: physicochemical
Conditions: 0.15 M NaCl (aq), pH-adjusted, 25 °C, saline or isotonic, thermodynamic from solid, Media pH 2, original pH 2.0, final pH 2.0
MEASURED_ATTRIBUTE: solubility at 24 h (µg/mL)
Provide the reading as a plain figure in µg/mL.

Identify the reported solubility at 24 h for the following entry. CCN(Cc1cc(C(F)(F)F)ccc1-c1cc(CC(=O)O)ccc1OC)C(=O)NCc1ccccc1 [Compound 1]
1.6

###

Test: clinical
Conditions: human, plasma, po, 300 mg
MEASURED_ATTRIBUTE: half-life (h)
Unit h implied. Number only.

Specify measured half-life for `CCN(Cc1cc(C(F)(F)F)ccc1-c1cc(CC(=O)O)ccc1OC)C(=O)NCc1ccccc1` .
7

###

Assay: Solubility profiling at various pHs
Assay type: physicochemical
Conditions: 0.15 M NaCl (aq), pH-adjusted, 25 °C, saline or isotonic, thermodynamic from solid, Media pH 5, original pH 5.0, final pH 5.07
MEASURED_ATTRIBUTE: solubility at 24 h
Put down the number, then write its unit next to it.

Indicate its recorded solubility at 24 h; the compound in question is CCN(Cc1cc(C(F)(F)F)ccc1-c1cc(CC(=O)O)ccc1OC)C(=O)NCc1ccccc1 [Compound 1]
53 µg/mL

###

Experiment: clinical
Settings: human, plasma, po, 300 mg
MEASURED_ATTRIBUTE: Cmax (ng/mL)
Respond numerically; units are ng/mL and should not be typed.

Could you please provide reported Cmax for CCN(Cc1cc(C(F)(F)F)ccc1-c1cc(CC(=O)O)ccc1OC)C(=O)NCc1ccccc1 [Compound 1] ? Thanks!
1400

###

Test: in vivo
Conditions: Hartley, guinea pig, plasma, po, 30 mg/kg
MEASURED_ATTRIBUTE: concentration at 2.5 h
Respond with a number, then the unit of measure.

Give the value of concentration at 2.5 h reported for the following: CCN(Cc1cc(C(F)(F)F)ccc1-c1cc(CC(=O)[O-])ccc1OC)C(=O)NCc1ccccc1.[Na+] [Compound 2, sodium salt]
727 nM

###

Experiment: Solubility profiling at various pHs
Assay type: physicochemical
Settings: 0.15 M NaCl (aq), pH-adjusted, 25 °C, pH 5.6, saline or isotonic, thermodynamic from solid, Media pH 6, original pH 6.02, final pH 5.60
MEASURED_ATTRIBUTE: solubility at 24 h (mg/mL)
Your answer should be a plain number; it is taken to be in mg/mL.

Give solubility at 24 h for the following compound: `CCN(Cc1cc(C(F)(F)F)ccc1-c1cc(CC(=O)O)ccc1OC)C(=O)NCc1ccccc1`
0.16

###

Biological target: Cytochrome P450 Enzyme 2C9 (Homo sapiens)
Sequence (P11712 whole entry): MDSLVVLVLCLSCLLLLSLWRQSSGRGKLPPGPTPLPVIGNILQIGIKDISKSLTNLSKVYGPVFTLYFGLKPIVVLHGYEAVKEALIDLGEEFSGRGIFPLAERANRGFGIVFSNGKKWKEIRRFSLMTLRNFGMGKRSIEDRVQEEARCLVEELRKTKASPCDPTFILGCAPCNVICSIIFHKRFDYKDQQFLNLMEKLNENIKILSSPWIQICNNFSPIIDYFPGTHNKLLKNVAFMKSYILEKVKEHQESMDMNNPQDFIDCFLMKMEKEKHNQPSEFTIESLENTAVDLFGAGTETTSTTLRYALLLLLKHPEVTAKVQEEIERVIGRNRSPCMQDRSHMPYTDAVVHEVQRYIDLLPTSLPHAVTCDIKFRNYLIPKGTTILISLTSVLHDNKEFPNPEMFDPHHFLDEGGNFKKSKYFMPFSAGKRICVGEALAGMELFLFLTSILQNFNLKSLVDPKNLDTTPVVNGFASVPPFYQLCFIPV
Assay: Extracellular cytochrome P450 inhibition, CYP2C9
Details: diclofenac 4′-hydroxylation, microsomes
Experimental: In general, microsomes at protein concentrations as defined in Table 12 were mixed with buffer (100 mM KH2PO4, pH 7.4), MgCl2 (6 mM)) and substrate, and were kept on ice. Aliquots of this mixture (89 μL) were delivered to each well of a 96-well polypropylene plate which contained an aliquot of inhibitor (1 μL) in acetonitrile:water (1:1). Final solvent concentrations were less than 1% (v/v). Incubations were initiated with the addition of 10 μL β-NADPH (10 mM stock) to a final volume of 100 μL. […]
pIC50: −log10 of the molar value.
MEASURED_ATTRIBUTE: pIC50

Identify measured pIC50 corresponding to CCN(Cc1cc(C(F)(F)F)ccc1-c1cc(CC(=O)[O-])ccc1OC)C(=O)NCc1ccccc1.[Na+] [Compound 2, sodium salt]
< 4.30

###

Target: Cytochrome P450 Enzyme 1A2 (Homo sapiens)
Sequence (P05177 1-516): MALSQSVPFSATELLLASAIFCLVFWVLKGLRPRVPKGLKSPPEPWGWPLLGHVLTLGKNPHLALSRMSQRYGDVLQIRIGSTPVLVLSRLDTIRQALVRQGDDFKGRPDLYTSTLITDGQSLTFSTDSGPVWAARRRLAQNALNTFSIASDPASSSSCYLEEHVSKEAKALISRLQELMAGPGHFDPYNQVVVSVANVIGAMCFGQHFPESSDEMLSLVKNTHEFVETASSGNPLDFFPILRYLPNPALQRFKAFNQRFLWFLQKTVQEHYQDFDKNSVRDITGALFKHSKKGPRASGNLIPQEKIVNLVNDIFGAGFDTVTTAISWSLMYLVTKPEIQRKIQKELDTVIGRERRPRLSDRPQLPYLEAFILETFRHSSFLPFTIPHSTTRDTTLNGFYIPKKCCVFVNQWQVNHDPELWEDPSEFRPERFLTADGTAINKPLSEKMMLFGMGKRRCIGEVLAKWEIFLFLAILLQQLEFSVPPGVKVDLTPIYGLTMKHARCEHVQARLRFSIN
MEASURED_ATTRIBUTE: IC50

For the compound CCN(Cc1cc(C(F)(F)F)ccc1-c1cc(CC(=O)[O-])ccc1OC)C(=O)NCc1ccccc1.[Na+] [Compound 2, sodium salt] , give its measured IC50 value.
> 50 µM

###

Test: in vivo
Conditions: Hartley, guinea pig, plasma, po, 0.1 mg/kg
MEASURED_ATTRIBUTE: concentration at 2.5 h (nM)
# value in nM; strip the unit string

Read the entry CCN(Cc1cc(C(F)(F)F)ccc1-c1cc(CC(=O)[O-])ccc1OC)C(=O)NCc1ccccc1.[Na+] [Compound 2, sodium salt] and write its reported concentration at 2.5 h.
22

###

Assay: in vivo
Conditions: mouse, plasma, po, 10 mg/kg
MEASURED_ATTRIBUTE: concentration at 24 h

Tell me concentration at 24 h reported for `CCN(Cc1cc(C(F)(F)F)ccc1-c1cc(CC(=O)O)ccc1OC)C(=O)NCc1ccccc1`
< 8 nM

###

Assay: physchem
Settings: water, 25 °C, pH 6.1, water, thermodynamic from solid
MEASURED_ATTRIBUTE: solubility at 24 h (µg/mL)
Report as a plain number; the unit µg/mL is understood.

Answer with the recorded solubility at 24 h of CCN(Cc1cc(C(F)(F)F)ccc1-c1cc(CC(=O)O)ccc1OC)C(=O)NCc1ccccc1 [Compound 1] only.
210

###

Target: DP2 receptor (Homo sapiens)
Sequence (Q9Y5Y4 whole entry): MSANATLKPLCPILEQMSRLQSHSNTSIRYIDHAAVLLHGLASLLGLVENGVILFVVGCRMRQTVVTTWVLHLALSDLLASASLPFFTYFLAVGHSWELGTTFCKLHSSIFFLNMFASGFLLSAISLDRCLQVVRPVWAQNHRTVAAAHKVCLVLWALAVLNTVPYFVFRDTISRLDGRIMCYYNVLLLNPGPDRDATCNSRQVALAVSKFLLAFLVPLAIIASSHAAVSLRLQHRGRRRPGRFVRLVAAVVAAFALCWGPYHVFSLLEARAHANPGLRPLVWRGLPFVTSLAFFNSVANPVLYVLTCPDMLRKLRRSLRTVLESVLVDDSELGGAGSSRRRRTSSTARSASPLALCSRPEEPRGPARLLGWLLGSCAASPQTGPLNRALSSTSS
Assay: In vitro DP2/CRTH2 radioligand binding assay ([3H]PGD2), human
Set-up: expressed in transfected cells
Conditions: with human serum albumin; read-out: IC50, DP2 receptor binding
MEASURED_ATTRIBUTE: IC50

Provide IC50 value for the following molecule: `CCN(Cc1cc(C(F)(F)F)ccc1-c1cc(CC(=O)O)ccc1OC)C(=O)NCc1ccccc1`
0.0122 µM

###

Biological target: Cytochrome P450 Enzyme 2D6 (Homo sapiens)
Sequence (P10635 whole entry): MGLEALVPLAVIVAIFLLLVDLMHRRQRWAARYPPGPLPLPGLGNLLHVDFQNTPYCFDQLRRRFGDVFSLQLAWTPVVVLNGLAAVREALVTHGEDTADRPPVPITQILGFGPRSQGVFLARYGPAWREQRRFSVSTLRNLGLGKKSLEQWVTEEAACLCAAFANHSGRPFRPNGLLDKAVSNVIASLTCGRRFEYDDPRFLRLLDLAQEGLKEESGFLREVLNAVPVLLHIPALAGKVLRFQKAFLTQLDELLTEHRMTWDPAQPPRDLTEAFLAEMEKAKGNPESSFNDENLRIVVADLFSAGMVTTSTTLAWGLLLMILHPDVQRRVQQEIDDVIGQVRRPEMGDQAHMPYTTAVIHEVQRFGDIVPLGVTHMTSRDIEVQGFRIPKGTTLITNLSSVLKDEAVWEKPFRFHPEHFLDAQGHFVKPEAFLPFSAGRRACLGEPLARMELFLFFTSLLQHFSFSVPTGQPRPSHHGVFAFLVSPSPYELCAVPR
Experiment: Extracellular cytochrome P450 inhibition, CYP2D6
Conditions: dextromethorphan O-demethylation, microsomes
MEASURED_ATTRIBUTE: IC50

State, in one line, measured IC50 of CCN(Cc1cc(C(F)(F)F)ccc1-c1cc(CC(=O)[O-])ccc1OC)C(=O)NCc1ccccc1.[Na+] [Compound 2, sodium salt]
> 50 µM

###

Molecular target: mouse DP2 receptor (Mus musculus)
Construct: expressed in transfected cells
Sequence (Q9Z2J6 whole entry): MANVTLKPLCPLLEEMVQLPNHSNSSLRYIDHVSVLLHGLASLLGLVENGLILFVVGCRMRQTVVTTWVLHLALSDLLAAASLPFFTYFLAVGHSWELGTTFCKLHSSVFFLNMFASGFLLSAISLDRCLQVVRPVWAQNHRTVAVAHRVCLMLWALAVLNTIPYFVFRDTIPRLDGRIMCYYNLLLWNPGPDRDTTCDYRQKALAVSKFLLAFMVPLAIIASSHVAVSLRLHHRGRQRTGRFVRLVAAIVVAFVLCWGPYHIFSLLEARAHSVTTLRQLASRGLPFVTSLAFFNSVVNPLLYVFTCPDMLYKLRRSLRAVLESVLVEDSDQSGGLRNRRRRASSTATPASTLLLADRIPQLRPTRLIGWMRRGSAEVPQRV
Assay: DP2 radioligand membrane binding assay, mouse
Settings: mouse DP2 receptor, in the presence of 0.2% mouse serum albumin; read-out: IC50, radioligand membrane binding
MEASURED_ATTRIBUTE: IC50 (nM)
Report as a plain number; the unit nM is understood.

For the compound CCN(Cc1cc(C(F)(F)F)ccc1-c1cc(CC(=O)O)ccc1OC)C(=O)NCc1ccccc1 [Compound 1] , report IC50.
20.1

###

Test: clinical
Conditions: human, plasma, po, 30 mg
MEASURED_ATTRIBUTE: Cmax

Note Cmax for the compound shown: `CCN(Cc1cc(C(F)(F)F)ccc1-c1cc(CC(=O)O)ccc1OC)C(=O)NCc1ccccc1`
11.2 ng/mL

###

Biological target: Cytochrome P450 Enzyme 2C19 (Homo sapiens)
Sequence (P33261 whole entry): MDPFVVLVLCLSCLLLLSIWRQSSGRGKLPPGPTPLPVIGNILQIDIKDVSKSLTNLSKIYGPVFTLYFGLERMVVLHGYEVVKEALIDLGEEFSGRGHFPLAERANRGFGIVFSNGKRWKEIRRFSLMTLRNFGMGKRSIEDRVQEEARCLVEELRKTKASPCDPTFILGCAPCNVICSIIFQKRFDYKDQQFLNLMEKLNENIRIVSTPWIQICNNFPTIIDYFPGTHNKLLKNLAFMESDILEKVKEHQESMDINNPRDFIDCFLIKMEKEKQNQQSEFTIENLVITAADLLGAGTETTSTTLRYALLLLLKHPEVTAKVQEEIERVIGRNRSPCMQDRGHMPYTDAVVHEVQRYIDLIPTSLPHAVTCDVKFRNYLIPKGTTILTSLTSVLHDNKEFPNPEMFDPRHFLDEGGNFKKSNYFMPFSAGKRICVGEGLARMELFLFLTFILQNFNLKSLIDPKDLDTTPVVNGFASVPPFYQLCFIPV
Assay: Extracellular cytochrome P450 inhibition, CYP2C19
pIC50: −log10 of the molar value.
MEASURED_ATTRIBUTE: pIC50

State recorded pIC50 with Cytochrome P450 Enzyme 2C19 (Homo sapiens), entry CCN(Cc1cc(C(F)(F)F)ccc1-c1cc(CC(=O)[O-])ccc1OC)C(=O)NCc1ccccc1.[Na+] [Compound 2, sodium salt] , no comment.
< 4.30
